Just for reference, ChEMBL document CHEMBL1134297 is where these values come from.

- measured.on: Sterol O-acyltransferase 1 (Rattus norvegicus, UniProt O70536)
- Sequence (O70536 whole entry): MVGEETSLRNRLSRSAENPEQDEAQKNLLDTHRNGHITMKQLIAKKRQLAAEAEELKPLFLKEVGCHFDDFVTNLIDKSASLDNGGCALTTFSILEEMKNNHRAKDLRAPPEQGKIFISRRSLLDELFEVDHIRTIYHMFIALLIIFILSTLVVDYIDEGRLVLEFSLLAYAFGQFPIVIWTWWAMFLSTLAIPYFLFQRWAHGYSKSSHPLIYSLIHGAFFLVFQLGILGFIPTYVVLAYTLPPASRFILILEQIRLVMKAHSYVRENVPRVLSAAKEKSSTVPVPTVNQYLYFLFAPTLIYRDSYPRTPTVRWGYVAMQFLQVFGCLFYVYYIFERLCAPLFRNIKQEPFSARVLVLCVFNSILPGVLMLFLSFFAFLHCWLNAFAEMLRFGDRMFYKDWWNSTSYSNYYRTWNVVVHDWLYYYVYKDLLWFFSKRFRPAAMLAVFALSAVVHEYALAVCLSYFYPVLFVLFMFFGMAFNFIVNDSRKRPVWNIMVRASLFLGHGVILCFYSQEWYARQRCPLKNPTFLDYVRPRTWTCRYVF
pIC50: −log10 of the molar value.
Quick rule: pIC50 of at least 4 means Fulfilled, below that means Not fulfilled.

Below, 4 compounds whose answers are already recorded.
| smiles.code | assigned.class |
| --- | --- |
| O=C(O)CCCCCCCSc1cc(-c2ccccc2)c(-c2ccccc2)nn1 | Not fulfilled |
| CCCCCn1nc(-c2ccccc2)c(-c2ccccc2)cc1=O | Fulfilled |
| CCCCCCCNc1cc(-c2ccccc2)c(-c2ccccc2)nn1 | Fulfilled |
| CCCCn1nc(-c2ccccc2)c(-c2ccccc2)cc1=O | Not fulfilled |

Exam item: decide whether the reported pIC50 for "CC(C)n1nc(-c2ccccc2)c(-c2ccccc2)cc1=O" is at least 4.
Not fulfilled

---

- measured.on: UniProtKB Q61263
- Sequence (Q61263 whole entry, looked up): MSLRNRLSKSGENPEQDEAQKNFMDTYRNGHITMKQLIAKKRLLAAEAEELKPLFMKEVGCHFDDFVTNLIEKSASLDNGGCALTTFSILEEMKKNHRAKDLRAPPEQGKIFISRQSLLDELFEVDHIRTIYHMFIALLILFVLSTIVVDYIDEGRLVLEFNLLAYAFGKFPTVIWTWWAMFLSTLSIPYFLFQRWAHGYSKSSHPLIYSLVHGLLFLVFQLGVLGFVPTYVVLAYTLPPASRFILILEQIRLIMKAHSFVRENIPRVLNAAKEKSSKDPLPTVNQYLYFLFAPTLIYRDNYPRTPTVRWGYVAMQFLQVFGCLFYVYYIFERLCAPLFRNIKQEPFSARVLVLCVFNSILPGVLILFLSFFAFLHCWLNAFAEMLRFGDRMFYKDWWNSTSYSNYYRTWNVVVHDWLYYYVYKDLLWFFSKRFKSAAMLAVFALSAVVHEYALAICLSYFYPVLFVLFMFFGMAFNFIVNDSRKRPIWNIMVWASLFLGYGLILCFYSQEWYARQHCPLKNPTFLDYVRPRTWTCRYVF
- experiment.summary: Inhibitory activity against Acyl-coenzyme A:cholesterol acyltransferase in macrophages
property.measured: IC50 (µM)
Kindly answer with a numeric value in µM, unit omitted.

| smiles.code | IC50 [µM] |
| --- | --- |
| CCCCCCCCNc1cc(-c2ccccc2)c(-c2ccccc2)nn1 | 3.2 |

// next entry
Which measured IC50 value corresponds to "CCCCCCCOc1cc(-c2ccccc2)c(-c2ccccc2)nn1" ?
5.1

---

- measured.on: Sterol O-acyltransferase 1 (Rattus norvegicus, UniProt O70536)
- Sequence (O70536 whole entry): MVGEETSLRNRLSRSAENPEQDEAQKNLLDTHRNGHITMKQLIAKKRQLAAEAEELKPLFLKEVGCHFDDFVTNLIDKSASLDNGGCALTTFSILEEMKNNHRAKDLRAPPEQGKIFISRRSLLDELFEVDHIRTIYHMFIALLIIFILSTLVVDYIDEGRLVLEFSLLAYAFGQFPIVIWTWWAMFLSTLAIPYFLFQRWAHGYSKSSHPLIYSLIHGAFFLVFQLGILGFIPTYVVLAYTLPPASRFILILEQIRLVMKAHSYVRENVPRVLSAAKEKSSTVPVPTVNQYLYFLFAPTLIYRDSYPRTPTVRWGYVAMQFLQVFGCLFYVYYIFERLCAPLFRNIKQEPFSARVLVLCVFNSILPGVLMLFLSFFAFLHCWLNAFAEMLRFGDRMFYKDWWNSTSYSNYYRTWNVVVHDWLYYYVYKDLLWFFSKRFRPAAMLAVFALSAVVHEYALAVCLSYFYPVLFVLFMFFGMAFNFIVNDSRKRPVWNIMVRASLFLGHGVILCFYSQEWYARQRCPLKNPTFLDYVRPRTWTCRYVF
With a cut-off of 70 µM, any IC50 strictly below it is called class 1; any IC50 meeting it or above is called class 0.

Below, 10 compounds whose answers are already recorded.
| compound | measured.on | assigned.class |
| --- | --- | --- |
| CCCCCC[S+]([O-])c1cc(-c2ccccc2)c(-c2ccccc2)nn1 (stereo unspecified) | Sterol O-acyltransferase 1 (Rattus norvegicus, UniProt O70536) | class 0 |
| CCCCCCCCOc1cc(-c2ccccc2)c(-c2ccccc2)nn1 | Sterol O-acyltransferase 1 (Rattus norvegicus, UniProt O70536) | class 0 |
| CCCCCCCCCOc1cc(-c2ccccc2)c(-c2ccccc2)nn1 | Sterol O-acyltransferase 1 (Rattus norvegicus, UniProt O70536) | class 0 |
| CCCCCCn1nc(-c2ccccc2)c(-c2ccccc2)c(C)c1=O | Sterol O-acyltransferase 1 (Rattus norvegicus, UniProt O70536) | class 1 |
| CCCCCCCCCSc1cc(-c2ccccc2)c(-c2ccccc2)nn1 | Sterol O-acyltransferase 1 (Rattus norvegicus, UniProt O70536) | class 0 |
| CCCCCCCCn1nc(-c2ccccc2)c(-c2ccccc2)cc1=O | Sterol O-acyltransferase 1 (Rattus norvegicus, UniProt O70536) | class 0 |
| O=C(O)CCCCCCCn1nc(-c2ccccc2)c(-c2ccccc2)cc1=O | Sterol O-acyltransferase 1 (Rattus norvegicus, UniProt O70536) | class 0 |
| CCCCCCNc1cc(-c2ccccc2)c(-c2ccccc2)nn1 | Sterol O-acyltransferase 1 (Rattus norvegicus, UniProt O70536) | class 1 |
| CCCCCCCSc1cc(-c2ccccc2)c(-c2ccccc2)nn1 | Sterol O-acyltransferase 1 (Rattus norvegicus, UniProt O70536) | class 0 |
| O=C(O)CCCCCCSc1cc(-c2ccccc2)c(-c2ccccc2)nn1 | Sterol O-acyltransferase 1 (Rattus norvegicus, UniProt O70536) | class 0 |

Kindly review the next compound as well.
In the record for "CCCCCOc1cc(-c2ccccc2)c(-c2ccccc2)nn1" , is IC50 less than 70 µM?
class 0
